test system: LPS-induced microglia activation; test: Image-based assay of LPS-induced microglia activation (HTS and dose response); type: cell-based, rat; details: Rattus norvegicus, Microglia, 48 h, primary microglia HTS, LPS stimulation; increased cell size (>800 μm^2) as marker of activation; read-out: LPS % inhibition
Where a name gives a salt, the structure may show the parent alone. *1 amine or outer side, *2 acyl side, *3 side chain or, on linkers, in order; H or OH if unused. Where a SMILES comes first, the peptide text is derived from it. Bridges are numbered along the chain shown (N, C = ends). Roman numbers before positions name the chains, in order. [ ]: non-standard residue; d: D form. Actinocin(9to1) = Cc1c2oc3c(C)ccc(C(=O)[*:1])c3nc-2c(C(=O)[*:2])c(N)c1=O; NMeV = CN[C@H](C(=O)O)C(C)C; Sar = CNCC(=O)O
Outcome label depends on inhibition at 10 µM relative to 80%: at/above gives satisfied, below gives not satisfied.

hey, is inhibition at 10 µM for this one >= 80%? Cc1c2oc3c(C)ccc(C(=O)N[C@@H]4C(=O)N[C@H](C(C)C)C(=O)N5CCC[C@H]5C(=O)N(C)CC(=O)N(C)[C@@H](C(C)C)C(=O)O[C@@H]4C)c3nc-2c(C(=O)N[C@@H]2C(=O)N[C@H](C(C)C)C(=O)N3CCC[C@H]3C(=O)N(C)CC(=O)N(C)[C@@H](C(C)C)C(=O)O[C@@H]2C)c(N)c1=O [Dactinomycin] (I: T[dV]P[Sar][NMeV] / II: T[dV]P[Sar][NMeV]; ester I:1-I:C, II:1-II:C; linker I:N-II:N via Actinocin(9to1)) satisfied

hey, is inhibition at 10 µM for this one >= 80%? OC[C@H]1O[C@@H](n2cnc3c(O)ncnc32)[C@H](O)[C@@H]1O [Inosine] satisfied

hey, is inhibition at 10 µM for this one >= 80%? CNC(=C[N+](=O)[O-])NCCSCc1csc(CN(C)C)n1 [Nizatidine] not satisfied

hey, is inhibition at 10 µM for this one >= 80%? CNCCCN1c2ccccc2CCc2ccccc21 [Desipramine hydrochloride, reference compound] satisfied

hey, is inhibition at 10 µM for this one >= 80%? COc1ccc(CN(CCN(C)C)c2ccccn2)cc1 [Mepyramine] not satisfied

Here's the next entry for you.
hey, is inhibition at 10 µM for this one >= 80%? CC(NCCC(c1ccccc1)c1ccccc1)c1ccccc1 (stereo not drawn) [Fendiline hydrochloride, reference compound] not satisfied
